Values compiled from patent US20160114000A1.

# tgt: human GLP-1 receptor (human, UniProt P43220 24-463)
# test.description: cell-based or functional assay
assay.metric: GLPR1 EC50 (nM) human; cAMP production (HitHunter cAMPXS), 20% human serum
Write the answer as a number in nM, unit excluded.

{"binder": "HXQGTXTSDKSKYLDERAAQDFVQWLLDT (D-Ser at 2; p-fluorophenylalanine (pFF) at 6; Lys 10 conjugated to γEγE-C16 (palmitoyl); C-terminal amide) [Co-agonist Peptide 9]", "readout.units": "nM", "reported.measurement": 0.06}
{"binder": "HXQGTFTSDKSKYLDERAAQDFVQWLXDT (D-Ser at 2; Lys 10 conjugated to γEγE-C16 (palmitoyl); methionine sulfone at 27; C-terminal amide) [Co-agonist Peptide 10]", "readout.units": "nM", "reported.measurement": 0.02}
{"binder": "HXQGTFTSDXSKYLDARAAQDFVQWLLDT (D-Ser at 2; para-aminomethyl phenylalanine (pAF) at 10 conjugated to γEγE-C16 (palmitoyl); C-terminal amide) [Co-agonist Peptide 12]", "readout.units": "nM", "reported.measurement": 0.05}

Okay, now this binder:
Given HXQGTFTSDKSKYLDERAAQDFVQWLLDT (D-Ser at 2; Lys 10 conjugated to γEγE-C16 (palmitoyl); C-terminal amide) [Comparator Co-agonist Peptide 6] , state its recorded GLPR1 EC50 (nM) human; cAMP production (HitHunter cAMPXS), 20% human serum.
0.007
